tested on: Malme-3M; assay: NCI tumour cell line growth inhibition, 48 h
Activity calls are given as the source filed them. Rule as the data show it: active = GI50 up to about 1.1 µM and inactive = higher.
Measurement Type: GI50

// worked examples, GI50 included
# Substance Smiles, GI50
measured = [
    ("C=CCN1C2Cc3cc(OC)c(OC)cc3C1Cc1cc(OC)c(OC)cc12", "> 100 µM (inactive)"),
    ("O=[PH]1c2ccccc2Nc2ccccc21", "80.2 µM (inactive)"),
    ("Cc1nc(C)c(N2CCN(C#N)CC2)c(O)n1", "> 100 µM (inactive)"),
    ("Cc1ccc2c3c4c(ccc13)C(C)(C)OC4=C(C(C)C)C2=O", "39.3 µM (inactive)"),
    ("O=C(Nc1cccc2c1C(=O)c1c(NC(=O)c3ccccc3)ccc(Nc3cccc4c3C(=O)c3ccccc3C4=O)c1C2=O)c1ccccc1", "> 100 µM (inactive)"),
    ("COc1ccc2c3c([nH]c2c1CC=C(C)C)C(=O)C=C(C)C3=O", "16.1 µM (inactive)"),
    ("CC1=C(C(=O)Nc2ccccc2)C(c2ccc(Cl)c(Cl)c2)C(C(=O)Nc2ccccc2)=C(C)N1", "12.7 µM (inactive)"),
    ("COC(=O)CC1(CNC(=O)OCc2ccccc2)OCCO1", "> 100 µM (inactive)"),
]

Read the next record carefully.
Query: Given the entry "CN1COc2c(n(C)c(=O)[nH]c2=O)C1" , report its measured GI50.
Reply: > 100 µM (inactive)

Ref: ChEMBL document CHEMBL1201862
